These data points were gathered from ChEMBL document CHEMBL1138343.

Molecular target: Glucocorticoid receptor (Homo sapiens, UniProt P04150)
pIC50: −log10 of the molar value.
recordedMetric: pIC50

CC1(CC(O)(Cn2ccc(=O)c3ccccc32)C(F)(F)F)CCCc2ccccc21 (stereo in doubt; 17D1) : 7.31

P. CC1(CC(O)(CNc2cccc3cnccc23)C(F)(F)F)CCCc2ccccc21 (stereo in doubt; 54D1E2)
Q. CCC1(CC(O)(CNc2cccc3nc(C)ccc23)C(F)(F)F)CCCc2ccccc21 (stereo in doubt; 45D1)
R. CC1(CC(O)(Cc2ccnc3ccccc23)C(F)(F)F)CCCc2ccccc21 (stereo in doubt; 41D1)
Ask: Ascending by pIC50, please. When ranking, write the labels in the order the request describes.
Reply: R, Q, P
(R: 8.15, Q: 8.62, P: 8.93)

I. CCC1(CC(O)(CNc2cccc3nc(C)ccc23)C(F)(F)F)CCCc2ccccc21 (stereo in doubt; 45D1E1)
II. CCC1(CC(O)(CNc2cccc3nc(C)ccc23)C(F)(F)F)CCCc2ccccc21 (stereo in doubt; 45D2)
Ask: Record comparison, field pIC50: mark the lower of I and II . // respond with label for picked entry
Reply: II

----------
Reported IC50, Glucocorticoid receptor (Homo sapiens, UniProt P04150).
recordedMetric: IC50 (nM)

CCC1(CC(O)(Cn2ccc(=O)c3ccccc32)C(F)(F)F)CCCc2ccccc21 (configuration not stated) : 14.1
CCC1(CC(O)(CNc2cccc3ncccc23)C(F)(F)F)CCCc2ccccc21 (configuration not stated) : 11.2
CC1(CC(O)(Cc2ccnc3ccccc23)C(F)(F)F)CCCc2ccccc21 (stereo in doubt; 41D2) : 24

A. CC1(CC(O)(CNc2cccc3cnccc23)C(F)(F)F)CCCc2ccccc21 (stereo in doubt; 54D2E1)
B. CCC1(CC(O)(CNc2cccc3cnccc23)C(F)(F)F)CCCc2ccccc21 (stereo in doubt; 49D1)
C. CC1(CC(O)(CNc2cccc3ncccc23)C(F)(F)F)CCCc2ccccc21 (configuration not stated)
D. CC1(CC(O)(Cn2ccc(=O)c3ccccc32)C(F)(F)F)CCCc2ccccc21 (stereo in doubt; 17D2)
Ask: Ascending by IC50, please. When ranking, write the labels in the order the request describes.
Reply: C, B, D, A

----------
Target protein (sequence): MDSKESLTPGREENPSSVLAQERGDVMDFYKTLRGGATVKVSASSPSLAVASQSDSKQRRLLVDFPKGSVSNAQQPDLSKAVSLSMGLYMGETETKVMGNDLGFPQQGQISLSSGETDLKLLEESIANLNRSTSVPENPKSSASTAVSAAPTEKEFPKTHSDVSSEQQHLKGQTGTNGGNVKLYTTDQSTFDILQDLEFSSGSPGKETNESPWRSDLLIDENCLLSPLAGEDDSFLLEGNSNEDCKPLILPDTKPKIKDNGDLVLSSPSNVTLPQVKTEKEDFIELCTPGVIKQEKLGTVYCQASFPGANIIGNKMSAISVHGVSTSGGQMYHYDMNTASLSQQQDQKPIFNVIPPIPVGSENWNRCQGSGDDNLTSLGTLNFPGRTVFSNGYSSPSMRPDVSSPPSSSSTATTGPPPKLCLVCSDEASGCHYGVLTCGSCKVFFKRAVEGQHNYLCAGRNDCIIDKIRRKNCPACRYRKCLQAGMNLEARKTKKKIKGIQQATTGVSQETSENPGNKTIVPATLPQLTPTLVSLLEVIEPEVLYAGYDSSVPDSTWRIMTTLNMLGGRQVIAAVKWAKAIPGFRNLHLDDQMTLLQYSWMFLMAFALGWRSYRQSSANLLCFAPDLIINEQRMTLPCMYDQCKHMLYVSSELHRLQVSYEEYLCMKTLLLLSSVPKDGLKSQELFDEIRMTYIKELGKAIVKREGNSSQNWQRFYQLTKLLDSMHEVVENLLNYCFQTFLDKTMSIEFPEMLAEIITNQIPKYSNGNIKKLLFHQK
recordedMetric: IC50 (nM)

Cc1ccc2c(NCC(O)(CC3(C)CCCc4ccccc43)C(F)(F)F)cccc2n1 (stereo in doubt; 55D1E1) : 0.501

P. OC(Cc1ccnc2ccccc12)(CC1(C2CCCC2)CCCc2ccccc21)C(F)(F)F (configuration not stated)
Q. CCC1(CC(O)(Cc2cc3c(C)cc(C#N)cc3[nH]2)C(F)(F)F)CCCc2ccccc21 (stereo in doubt; 21D1)
R. CC1(CC(O)(CNc2cccc3ncccc23)C(F)(F)F)CCCc2ccccc21 (configuration not stated)
S. CC1(CC(O)(Cc2cc3ccccc3[nH]2)C(F)(F)F)CCCc2ccccc21 (configuration not stated)
Ask: List these items ordered by IC50, big to small. When ranking, write the labels in the order the request describes.
Reply: P, S, Q, R

I. CCC1(CC(O)(Cc2[nH]c3ccccc3c2C#N)C(F)(F)F)CCCc2ccccc21 (configuration not stated)
II. CCC1(CC(O)(Cc2cc3ccncc3[nH]2)C(F)(F)F)CCCc2ccccc21 (stereo in doubt; 23D1)
Ask: Record comparison, field IC50: mark the lower of I and II . // respond with label for picked entry
Reply: I

I. CCC1(CC(O)(CNc2cccc3cnccc23)C(F)(F)F)CCCc2ccccc21 (stereo in doubt; 49D1E2)
II. CCC1(CC(O)(CNc2cccc3nc(C)ccc23)C(F)(F)F)CCCc2ccccc21 (stereo in doubt; 45D2E1)
Ask: Record comparison, field IC50: mark the lower of I and II . // respond with label for picked entry
Reply: I

1. CCC1(CC(O)(Cc2ccnc3ccccc23)C(F)(F)F)CCCc2ccccc21 (stereo in doubt; 33D1E1)
2. CCC1(CC(O)(Cn2ccc(=O)c3ccccc32)C(F)(F)F)CCCc2ccccc21 (configuration not stated)
Ask: Determine, for 1 and 2 , which has the greater value of IC50. // respond with label for picked entry
Reply: 2
(2: 8.13 nM, 1: 1.58 nM)

P. CCC1(CC(O)(CNc2cccc3cnccc23)C(F)(F)F)CCCc2ccccc21 (stereo in doubt; 49D1)
Q. Cc1noc(=O)c2ccc(NC(=O)C(O)(CC3(C4CCCC4)CCCc4ccccc43)C(F)(F)F)cc12 (configuration not stated)
Ask: Record comparison, field IC50: mark the lower of P and Q . // respond with label for picked entry
Reply: P

P. CCC1(CC(O)(Cc2ccnc3ccccc23)C(F)(F)F)CCCc2ccccc21 (stereo in doubt; 33D1)
Q. Cc1ccc2c(NCC(O)(CC3(C)CCCc4ccccc43)C(F)(F)F)cccc2n1 (stereo in doubt; 55D2E1)
Ask: Record comparison, field IC50: mark the lower of P and Q . // respond with label for picked entry
Reply: P
(P: 4.9 nM, Q: 9.12 nM)
